# credit: patent US20220017572A1

target: dengue 2 protease (Dengue virus type 2, UniProt P14340); construct: The active site of the dengue protease is in the N-terminal part of NS3; experiment: Dengue 2 protease inhibition, hydrolysis of Z-RR-MCA; assay type: biochemical, dengue 2 virus; details: 5 μM inhibitor, 36.5° C.
Sequence (P14340 1476-1653): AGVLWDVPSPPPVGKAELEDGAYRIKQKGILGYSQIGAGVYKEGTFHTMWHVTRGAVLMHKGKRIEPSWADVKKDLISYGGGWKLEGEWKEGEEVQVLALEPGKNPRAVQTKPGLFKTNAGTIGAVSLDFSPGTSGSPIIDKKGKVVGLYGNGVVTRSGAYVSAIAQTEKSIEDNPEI
Residues, ends and D or L forms follow the SMILES beside them.
property measured: activity at 5 µM

[[record]]
molecule = "CCCCCCCCCCCCCCCCNC(=O)[C@H](CCCCN)NC(=O)CNC(=O)CNC(=O)CNC(=O)CNC(=O)[C@H](CCCCN)NC(=O)CCCCCCCCCCCCCCC [C16KG4KC16] (HELM PEPTIDE1{[CCCCCCCCCCCCCCCC(=O)[*:2]].K.G.G.G.G.K.[CCCCCCCCCCCCCCCCN[*:1]]}$$$$V2.0)"
result = "86%"

[[record]]
molecule = "CCCCCCCCCCCCCCCCNC(=O)[C@H](CCCCN)NC(=O)[C@H](C)NC(=O)[C@H](CCCCN)NC(=O)CCCCCCCCCCCCCCC [C16-KAK-C16]"
result = "66%"

[[record]]
molecule = "CCCCCCCCCCCCCCCCNC(=O)[C@H](CCCCN)NC(=O)[C@H](C)NC(=O)[C@H](C)NC(=O)[C@H](C)NC(=O)[C@H](CCCCN)NC(=O)CCCCCCCCCCCCCCC [C16-KAAAK-C16] (HELM PEPTIDE1{[CCCCCCCCCCCCCCCC(=O)[*:2]].K.A.A.A.K.[CCCCCCCCCCCCCCCCN[*:1]]}$$$$V2.0)"
result = "85%"

[[record]]
molecule = "CCCCCCCCCCCCCCCCNC(=O)[C@H](CCCCN)NC(=O)[C@H](C)NC(=O)[C@H](C)NC(=O)[C@H](CCCCN)NC(=O)CCCCCCCCCCCCCCC [C16-KAAK-C16] (HELM PEPTIDE1{[CCCCCCCCCCCCCCCC(=O)[*:2]].K.A.A.K.[CCCCCCCCCCCCCCCCN[*:1]]}$$$$V2.0)"
result = "79%"

[[record]]
molecule = "CCCCCCCCCCCCCCCCNC(=O)[C@H](CCCCN)NC(=O)[C@H](C)NC(=O)[C@H](C)NC(=O)[C@H](C)NC(=O)[C@H](C)NC(=O)[C@H](CCCCN)NC(=O)CCCCCCCCCCCCCCC [C16-KAAAAK-C16] (HELM PEPTIDE1{[CCCCCCCCCCCCCCCC(=O)[*:2]].K.A.A.A.A.K.[CCCCCCCCCCCCCCCCN[*:1]]}$$$$V2.0)"
result = "90%"

[[record]]
molecule = "CCCCCCCCCCCCCCCCNC(=O)[C@H](CCCCN)NC(=O)CNC(=O)CNC(=O)CNC(=O)[C@H](CCCCN)NC(=O)CCCCCCCCCCCCCCC [C16-KGGGK-C16, C15H31CO-KGGGK-NH—C16H33] (HELM PEPTIDE1{[CCCCCCCCCCCCCCCC(=O)[*:2]].K.G.G.G.K.[CCCCCCCCCCCCCCCCN[*:1]]}$$$$V2.0)"
result = "86%"

[[record]]
molecule = "CCCCCCCCCCCCCCCCNC(=O)[C@H](CCCCN)NC(=O)CNC(=O)[C@H](CCCCN)NC(=O)CCCCCCCCCCCCCCC [C16-KGK-C16, C15H31CO-KGK-NH—C16H33]"
result = "75%"

[[record]]
molecule = "CCCCCCCCCCCCCCCCNC(=O)[C@H](CCCCN)NC(=O)CNC(=O)CNC(=O)[C@H](CCCCN)NC(=O)CCCCCCCCCCCCCCC [C16-KGGK-C16, C15H31CO-KGGK-NH—C16H33] (HELM PEPTIDE1{[CCCCCCCCCCCCCCCC(=O)[*:2]].K.G.G.K.[CCCCCCCCCCCCCCCCN[*:1]]}$$$$V2.0)"
result = "88%"

